Please go through the items and note down their % cells in cell cycle phase: S.
system: HeLa cells; assay: Cell cycle assay in HeLa cells; type: cell-based, human; details: HeLa cells, 150 nM oligomeric compound, 48 hours after treatment; relative to untreated control (UTC=100)
In the oligonucleotide strings, read from the 5' end, every base follows the letter of its sugar. An asterisk marks phosphorothioate; unmarked linkages are phosphodiester. Other units and linkages are bracketed, terminal groups are in braces. A string of capitals states the bases alone. e = 2'-O-(2-methoxyethyl) (MOE); [5mC] = 5-methylcytosine; d = 2'-deoxy (DNA)
Give the figure together with its unit, number first.

Please give the measured % cells in cell cycle phase: S for this substance: 328424 (antisense eA*eG*eG*eA*eA*dG*d[5mC]*dA*d[5mC]*dA*d[5mC]*dA*dT*dT*dA*eT*e[5mC]*eA*e[5mC]*eA) [compound 328424]
91%

Please give the measured % cells in cell cycle phase: S for this substance: 327949 (antisense e[5mC]*eA*e[5mC]*eA*eA*eA*eT*eT*e[5mC]*eG*eG*eA*eT*e[5mC]*eT*eA*e[5mC]*eA*eG*eG*eG*eT*eA) [compound 327949]
157%

Please give the measured % cells in cell cycle phase: S for this substance: 327911 (antisense eG*e[5mC]*eT*eA*e[5mC]*e[5mC]*eT*eG*e[5mC]*eA*e[5mC]*eT*eG*eT*eA*eA*eG*e[5mC]*eA*e[5mC]*eT*eT*eT*eT) [compound 327911]
96%

Please give the measured % cells in cell cycle phase: S for this substance: 328119 (antisense eA*eA*eT*eA*eA*e[5mC]*eA*e[5mC]*eA*e[5mC]*eA*eT*e[5mC]*e[5mC]*eA*e[5mC]*eT*eT*eT*eA*eA) [compound 328119]
145%

Please give the measured % cells in cell cycle phase: S for this substance: 327910 (antisense eT*eG*eA*eT*eA*eG*e[5mC]*e[5mC]*e[5mC]*eT*eG*eT*eA*e[5mC]*eA*eA*eT*eG*e[5mC]*eT*eG*e[5mC]*eT) [compound 327910]
91%

Please give the measured % cells in cell cycle phase: S for this substance: 327946 (antisense eA*eG*eG*e[5mC]*eG*eA*eA*eG*eG*eA*eT*eG*eA*e[5mC]*eA*eA*eA*eG*eG*eG*eA*eA) [compound 327946]
150%

Please give the measured % cells in cell cycle phase: S for this substance: 328419 (antisense eT*eG*eT*eT*eG*d[5mC]*d[5mC]*dT*dA*dA*d[5mC]*dG*dA*dA*d[5mC]*eA*e[5mC]*eA*eG*eA) [compound 328419]
96%

Please give the measured % cells in cell cycle phase: S for this substance: 327907 (antisense eA*eG*e[5mC]*e[5mC]*eT*eA*eT*e[5mC]*e[5mC]*eT*eG*eG*eA*eT*eT*eA*e[5mC]*eT*eT*eG*eA*eA) [compound 327907]
111%

Please give the measured % cells in cell cycle phase: S for this substance: 328339 (eG*e[5mC]*eA*eG*e[5mC]*dG*d[5mC]*dA*dG*d[5mC]*dT*dG*dG*dT*d[5mC]*eT*e[5mC]*e[5mC]*e[5mC]*e[5mC]) [compound 328339]
153%

Please give the measured % cells in cell cycle phase: S for this substance: 328388 (eT*e[5mC]*e[5mC]*e[5mC]*eA*dT*dA*dG*d[5mC]*dA*dG*dG*dG*d[5mC]*dA*eG*eA*eG*e[5mC]*e[5mC]; antisense) [compound 328388]
101%

Please give the measured % cells in cell cycle phase: S for this substance: 328647 (eG*eG*eA*eG*eT*dA*dG*dA*dT*dG*dA*dT*dG*dG*dT*eT*eA*eG*e[5mC]*e[5mC]; antisense) [compound 328647]
153%

Please give the measured % cells in cell cycle phase: S for this substance: 328759 (antisense eG*eA*eG*eG*eG*dA*dT*dT*dG*dT*dA*dT*dG*dA*dA*e[5mC]*eA*eT*e[5mC]*eT) [compound 328759]
31%

Please give the measured % cells in cell cycle phase: S for this substance: 338678 (antisense CTGGTTGGGTATGAGACAGA; all 2'-MOE, all phosphorothioate, methylation of C not given here) [compound 338678]
78%

Please give the measured % cells in cell cycle phase: S for this substance: 327903 (antisense eA*eA*e[5mC]*eT*eA*eT*eA*e[5mC]*eA*eA*e[5mC]*e[5mC]*eT*eA*e[5mC]*eT*eA*e[5mC]*e[5mC]*eT*e[5mC]*eA) [compound 327903]
95%

Please give the measured % cells in cell cycle phase: S for this substance: 328374 (eA*eG*e[5mC]*eT*eT*dT*dA*dG*d[5mC]*dT*dG*dG*dG*dT*d[5mC]*eA*eG*eG*eA*e[5mC]; antisense) [compound 328374]
157%

Please give the measured % cells in cell cycle phase: S for this substance: 345395 (AAGGGATTCCTGGGAAAACTGGAC; sugars from the 5' end e5 d10 e9, all phosphorothioate, methylation of C not given here) [compound 345395]
192%

Please give the measured % cells in cell cycle phase: S for this substance: 327956 (antisense e[5mC]*eA*e[5mC]*eA*eG*eT*eT*eG*e[5mC]*e[5mC]*eA*eG*e[5mC]*eT*eG*eA*eG*eA*eT*eT*eA) [compound 327956]
106%

Please give the measured % cells in cell cycle phase: S for this substance: 338826 (antisense CGGATCCTGTTACCTCACCA; all 2'-MOE, all phosphorothioate, methylation of C not given here) [compound 338826]
124%

Please give the measured % cells in cell cycle phase: S for this substance: 338750 (antisense TCCGCGGGGGCGGGGAGGCT; all 2'-MOE, all phosphorothioate, methylation of C not given here) [compound 338750]
101%

Please give the measured % cells in cell cycle phase: S for this substance: 328687 (eG*e[5mC]*eT*eT*e[5mC]*d[5mC]*d[5mC]*dA*dG*d[5mC]*dG*dG*d[5mC]*d[5mC]*dT*eA*eT*eA*eG*eT; antisense) [compound 328687]
174%

Please give the measured % cells in cell cycle phase: S for this substance: 328111 (antisense eT*e[5mC]*e[5mC]*eG*eA*eG*eT*e[5mC]*eG*eG*eA*eG*eG*eA*eG*eG*eA*eG*eG*eA*eA) [compound 328111]
126%
